assay: protein stability index of a GFP-peptide fusion (GPS, HEK-293T) (PSI 1-6); higher = more stable; conditions: treatment: MLN4924 1 uM, 8 h; c terminus: a fixed tail appended;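 further: 24-mer peptide tiles fused after GFP, lentivirally expressed, FACS-sorted into six equal bins by GFP/DsRed ratio, decoded by Illumina sequencing, PSI is the read-weighted mean bin number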
Attribute measured: protein stability index
Lab note: record the figure alone, no unit after it.

Take a look at these entries with their results.
{"Query sequence": "VVKLLVSHGANVNHTTVTNSTPLR [FEM1B]", "Obs value": 2.29}
{"Query sequence": "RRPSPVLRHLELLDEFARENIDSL [SCNN1D]", "Obs value": 3.56}
{"Query sequence": "KGKDNKHPMYRRLVHSAVDVPTIQ [ZMYND11]", "Obs value": 3.71}
{"Query sequence": "GAQVNMPADSFESPLTLAACGGHV [ANKRD17]", "Obs value": 4.24}
{"Query sequence": "QRGHYRVARILIDLCSDVNVCSLL [RIPK4]", "Obs value": 2.69}

Exercise: Would you mind telling me what protein stability index value was observed for RVLLTGLHAVADIHCENCKTTLGW [YPEL3] ?
Solution: 2.27

Exercise: Would you mind telling me what protein stability index value was observed for THICRSHNSINQSLDESVIYGPGN [SLC2A12] ?
Solution: 3.74

Exercise: Would you mind telling me what protein stability index value was observed for TIQGVPLSSYISINSDTGVLYALR [PCDHGA10] ?
Solution: 2.14

Exercise: Would you mind telling me what protein stability index value was observed for QQPGQDALAVKAGHGYDSKKQQEL [ZBED1] ?
Solution: 5.21

Exercise: Would you mind telling me what protein stability index value was observed for LSTDMVHAASDPSSSSGRLSEPDP [SMOC2] ?
Solution: 5.38

Exercise: Would you mind telling me what protein stability index value was observed for PFGESNGNGVHVCNVKYKRWALLS [KLHDC10] ?
Solution: 2.26

Exercise: Would you mind telling me what protein stability index value was observed for LEKSNKNFSKKIQQIHVVSQFKIL [VPS39] ?
Solution: 2.07

Exercise: Would you mind telling me what protein stability index value was observed for GMSLAKELIFSARVLDGKEAKAVG [AUH] ?
Solution: 3.48

====

test: protein stability index of a GFP-peptide fusion (GPS, HEK-293T) (PSI 1-6); higher = more stable; conditions: treatment: DMSO; c terminus: a fixed tail appended
Parameter protein stability index: see the listing below.
Lab note: record the figure alone, no unit after it.

Take a look at these entries with their results.
{"Query sequence": "RRLLSYCKGRDHGVLDALHVLEGL [ZSWIM9]", "protein stability index": 2.03}
{"Query sequence": "TASSISSSGGSSGSSSDNRTYRYS [DYRK1B]", "protein stability index": 4.62}
{"Query sequence": "MFTSELSEKGKPYVDIQGLTASTM [KLHL12]", "protein stability index": 2.54}

Exercise: Would you mind telling me what protein stability index value was observed for NFCHIHNCIHRDIKPENILITKQG [CDKL4] ?
Solution: 2.53

Exercise: Would you mind telling me what protein stability index value was observed for AAKQNHVTADDFVQTSVIGSNGYI [EHMT1] ?
Solution: 3.56

Exercise: Would you mind telling me what protein stability index value was observed for EAFKKHSLDLLSKERELNGKLRHL [CCDC89] ?
Solution: 3.34

Exercise: Would you mind telling me what protein stability index value was observed for KGGNLRDKLDGNELDLSLSDLNEV [LRRC59] ?
Solution: 4.86

Exercise: Would you mind telling me what protein stability index value was observed for STNRRRLSELLRYHTSQSGDEMTS [HSP90AB1] ?
Solution: 3.85

Exercise: Would you mind telling me what protein stability index value was observed for SDTESTDLPSSTPVANSGTKPKTT [DLC1] ?
Solution: 5.47

====

Parameter protein stability index: see the listing below.
test: protein stability index of a GFP-peptide fusion (GPS, HEK-293T) (PSI 1-6); higher = more stable; conditions: treatment: MLN4924 1 uM, 8 h; c terminus: a fixed tail appended
Lab note: record the figure alone, no unit after it.

{"Query sequence": "LLKYRAREPVTKAEMLGSVVGNWQ [MAGEA3]", "protein stability index": 2.51}
{"Query sequence": "ERLQAIAEKRKRQAEIENKRRQLE [PALM]", "protein stability index": 3.73}
{"Query sequence": "PSHGSLSHSKAPSGSQMSHNAVTS [NCF4]", "protein stability index": 4.83}
{"Query sequence": "SWNNNDRSLNVFVKEDDKLIFHRH [SPSB1]", "protein stability index": 3.29}
{"Query sequence": "RPTPQDWLHRRAQILEILRRRPWA [ADAMTS4]", "protein stability index": 3.1}
{"Query sequence": "FPRDHTSLALVQNGDVSAPSAILR [ANKRD40]", "protein stability index": 3.97}

Could you now look at the following sequence, please?
Exercise: Would you mind telling me what protein stability index value was observed for FTGKAEMGGPFSYVYFFCTVPEIL [TMEM106C] ?
Solution: 2.16

====

assay: protein stability index of a GFP-peptide fusion (GPS, HEK-293T) (PSI 1-6); higher = more stable; conditions: treatment: MLN4924 1 uM, 8 h; c terminus: native
Please use true (1) whenever protein stability index is not below 3, and false (0) whenever it is.

Worked examples follow.
{"Query sequence": "DTRLGQVSALPLPPAMKRYLLYQ [SPSB2]", "Class assignment": "false (0)"}
{"Query sequence": "ELDYLMDVLVGTQALERPPGPGR [SERTAD1]", "Class assignment": "false (0)"}
{"Query sequence": "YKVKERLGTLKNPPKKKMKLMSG [LCOR]", "Class assignment": "true (1)"}
{"Query sequence": "GVKLEGKVPMHKLFLEMLEAMMD [ESRRA]", "Class assignment": "false (0)"}

Exercise: Is it the case that FRNAASTLTERPCYNRRASKLTY [ANKRD40] has protein stability index reaching or exceeding 3?
Solution: true (1)

====

test: protein stability index of a GFP-peptide fusion (GPS, HEK-293T) (PSI 1-6); higher = more stable; settings: treatment: DMSO; c terminus: a fixed tail appended
Parameter protein stability index: see the listing below.
Lab note: record the figure alone, no unit after it.

{"Query sequence": "EILTKESNVQEVRCPVTVCGDVHG [PPP2CA]", "Attribute measured": "protein stability index", "Obs value": 3.69}
{"Query sequence": "FEPRLLVQSIELQRPRFITSGGSN [VPS39]", "Attribute measured": "protein stability index", "Obs value": 2.88}
{"Query sequence": "SLGELCHPVPLSFEPVKSFFKGLV [TRIM14]", "Attribute measured": "protein stability index", "Obs value": 2.47}
{"Query sequence": "RAGGWVSGEEFYMLTRRVLQLETV [PKD2L1]", "Attribute measured": "protein stability index", "Obs value": 1.98}
{"Query sequence": "ILIIRFEMPYNIWCDGCKNHIGMG [YJU2B]", "Attribute measured": "protein stability index", "Obs value": 3.24}
{"Query sequence": "AGIELIIEDDIRPEKQKRKPGLRR [MYBL2]", "Attribute measured": "protein stability index", "Obs value": 3.63}
{"Query sequence": "TIKLWKITERDKRPEGYNLKDEEG [PPP2R2C]", "Attribute measured": "protein stability index", "Obs value": 4.05}
{"Query sequence": "YAVEASTMAQHAEVLVKSNNLTDR [CARM1]", "Attribute measured": "protein stability index", "Obs value": 4.16}

Exercise: Would you mind telling me what protein stability index value was observed for VAALREEQKVLSRLVESLSTQIRA [RASAL3] ?
Solution: 2.34

Exercise: Would you mind telling me what protein stability index value was observed for MYHYLQFAYYKLNDVRQAARSAAS [P3H4] ?
Solution: 2.05

====

experiment: protein stability index of a GFP-peptide fusion (GPS, HEK-293T) (PSI 1-6); higher = more stable; settings: treatment: MLN4924 1 uM, 8 h; c terminus: a fixed tail appended
Parameter protein stability index: see the listing below.
Lab note: record the figure alone, no unit after it.

Take a look at these entries with their results.
{"Query sequence": "VDDAYVRRMAAEATEWQKAGAPPP [SRPK2]", "protein stability index": 4.63}
{"Query sequence": "EVLLDHLKAHAEEKPPSGTKEKKH [PLAGL1]", "protein stability index": 5.08}
{"Query sequence": "LPPALVPAGGLAPGGGRGALLDQI [WAS]", "protein stability index": 3.71}
{"Query sequence": "VRKANRIKECLSKGTFSDVTFKLD [RHOBTB1]", "protein stability index": 3.43}

Exercise: Would you mind telling me what protein stability index value was observed for LQLLQSRTSRKFLACRLTPDMETK [INTS3] ?
Solution: 2.68

Exercise: Would you mind telling me what protein stability index value was observed for GDWIGLYRHFLKSPNFDGWFKTRR [DENND6A] ?
Solution: 2.49

Exercise: Would you mind telling me what protein stability index value was observed for MVPHNLETTERMKCLYYLYATLDL [PDS5B] ?
Solution: 2.16

Reference for the values: the supplement of paper PMC10567573
